assay target: T1, Apolipoprotein E4 (human, UniProt P02649 19-317)
T1 construct: also called ApoE4; hApoE4
T1 sequence (P02649 19-317 C130R limits assumed): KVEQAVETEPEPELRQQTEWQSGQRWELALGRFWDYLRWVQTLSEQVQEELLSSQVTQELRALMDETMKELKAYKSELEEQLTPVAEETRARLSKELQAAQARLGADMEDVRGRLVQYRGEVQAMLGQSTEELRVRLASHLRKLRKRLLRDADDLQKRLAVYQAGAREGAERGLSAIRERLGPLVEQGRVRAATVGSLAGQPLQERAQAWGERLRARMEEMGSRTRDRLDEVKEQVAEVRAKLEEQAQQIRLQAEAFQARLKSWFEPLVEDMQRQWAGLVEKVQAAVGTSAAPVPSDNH
protocol details: pH affinity ELISA, coated hApoE4
observed property: Ratio pH 7.4/6.0 (EC50)

Report measured Ratio pH 7.4/6.0 (EC50); entry is BAP191.01-CPE-HC-R098E (antibody, V domains shown) VH: QIQLVQSGPELKKPGETVKISCKASGYTFTTAGMQWVQKMPGKGFKWIGWINTHSGEPKYAEDFKGRFAFSLETSASTAYLQISNLKNEDTATYFCAEMGGYAMDYWGQGTSVTVSS VL: DIKLTQSPSSMYASLGERVTITCKASEDINSYLSWFQQKPGKSPKTLIYRANRLVDGVPSRFSGSGSGQDYSLTISSLEYEDMGIYYCLQYDEFPLTFGAGTKLELT
4.33 ratio
